Molecular target: T1, human GIP receptor (human, UniProt P48546 22-466)
T1 sequence (looked up): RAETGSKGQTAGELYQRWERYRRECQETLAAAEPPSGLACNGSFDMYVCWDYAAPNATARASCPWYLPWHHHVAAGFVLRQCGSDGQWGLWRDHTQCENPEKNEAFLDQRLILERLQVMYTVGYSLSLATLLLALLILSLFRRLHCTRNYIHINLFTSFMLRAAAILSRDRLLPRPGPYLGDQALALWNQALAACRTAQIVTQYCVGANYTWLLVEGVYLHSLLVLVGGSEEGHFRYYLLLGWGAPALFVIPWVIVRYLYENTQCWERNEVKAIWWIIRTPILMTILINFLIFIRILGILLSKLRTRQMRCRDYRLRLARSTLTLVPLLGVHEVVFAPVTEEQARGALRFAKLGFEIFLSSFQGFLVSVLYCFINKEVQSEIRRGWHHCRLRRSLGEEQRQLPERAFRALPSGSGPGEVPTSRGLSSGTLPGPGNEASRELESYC
Assay: cell-based or functional assay
Starred links: 1 amine or outer side, 2 acyl side, 3 side chain; linkers in the order of their positions; H or OH if unused. Non-standard residues stand in square brackets, D forms with d. Groups on a side chain read outwards from the residue. No end group written: not given here. *: point of attachment. C20 diacid = O=C(O)CCCCCCCCCCCCCCCCCCC(=O)*; C18 diacid = O=C(O)CCCCCCCCCCCCCCCCC(=O)*; γGlu = O=C(O)[C@H](CCC(=O)[*:2])N[*:1]; εLys = N[C@@H](CCCCN[*:1])C(=O)[*:2]; AEEA = NCCOCCOCC(=O)O; Aib = CC(C)(N)C(=O)O
Lab note: cut-off is 5 nM. Strictly less in EC50, CreLuc assay, 100% hP is T. Exactly 5 nM or more is F.

>>> qualitative_label("YXEGTFTSDYSIXLEEQAQXAFVQWLIKGGPSSGQSLRHYYNWLTRQRY (Aib at 2, 13, 20; K28 side chain: C20DA-gGlu-Glu-gGlu-gGlu-gGlu-gGlu-eLys; C-terminal NH2) [Compound 8]")
"T"
>>> qualitative_label("YXEGTFTSDYSIXLEKQAQXAFVEWLIKGGPSSPQSLRHYYNWLTRQRY (Aib at 2, 13, 20; K28 side chain: C20DA-gGlu-gGlu-gGlu-gGlu-gGlu-gGlu-eLys; C-terminal NH2) [Compound 41]")
"T"
>>> qualitative_label("YXEGTFTSDYSIXLEKQAQXAFVQWLIKGGQSSYASLRHYYNWLTRQRY (Aib at 2, 13, 20; K28 side chain: C20DA-gGlu-gGlu-gGlu-gGlu-gGlu-Glu-eLys; C-terminal NH2) [Compound 22]")
"F"
>>> qualitative_label("Y[Aib]EGTFTSDYSI[Aib]LEKQAQ[Aib]EFVEWLIK([AEEA-AEEA-γGlu-γGlu-γGlu-C18 diacid])GGPESGASLRHYYNWLTRQRY-NH2 (also: TFA salt) [Compound 81]")
"T"
>>> qualitative_label("Y[Aib]EGTFTSDYSI[Aib]LEEQAQ[Aib]AFVQWLIK([εLys-AEEA-γGlu-γGlu-γGlu-γGlu-γGlu-C20 diacid])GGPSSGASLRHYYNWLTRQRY-NH2 (also: TFA salt) [Compound 45]")
"T"
>>> qualitative_label("Y[Aib]EGTFTSDYSI[Aib]LEKQAQ[Aib]AFVQWLIKGGPSYYASLRHYYNWLTRQRY-NH2 (not fully specified (residue 28); also: TFA salt) [Compound 59]")
"F"
>>> qualitative_label("YXEGTFTSDYSIXLAAAAQXAFVEWLIKGGPSSGASLRHYYNWLTRQRY (Aib at 2, 13, 20; K28 side chain: C20DA-gGlu-gGlu-gGlu-gGlu-gGlu-gGlu-eLys; C-terminal NH2) [Compound 20]")
"F"
>>> qualitative_label("YXEGTFTSDYSIXLEXEAQXKFVEWLIKGGPSSGASLRHYYNWLTRQRY (Aib at 2, 13, 16, 20; K28 side chain: C20DA-gGlu-gGlu-gGlu-gGlu-gGlu-gGlu-eLys; C-terminal NH2) [Compound 16]")
"T"
>>> qualitative_label("Y[Aib]EGTFTSDYSI[Aib]LEKQAQ[Aib]AFVQWLIK([AEEA-AEEA-γGlu-γGlu-γGlu-γGlu-C18 diacid])GGPEEPASLRHYYNWLTRQRY-NH2 (also: TFA salt) [Compound 57]")
"T"
>>> qualitative_label("YXEGTFTSDYSIXLEKQAQXAFVEWLIKGGPSSPESLRHYYNWLTRQRY (Aib at 2, 13, 20; K28 side chain: C20DA-gGlu-gGlu-gGlu-gGlu-gGlu-gGlu-eLys; C-terminal NH2) [Compound 73]")
"T"

# credit: patent US20240247080A1
